Catalogue of compounds with associated ETOH
Test system: rumen inoculum
Assay: Rumen in vitro model
Parameters: species or system steer
Settings: 5 ppm
API: value field is a number in % OF CONTROL; no unit string.

INSERT INTO measurements (compound, assay_target, recorded_metric, reported_measurement) VALUES
  ('CCCCCCCCCC(=O)N[C@H]1[C@H](Oc2c3cc4cc2Oc2c(Cl)cc(cc2Cl)[C@@H](O)[C@@H]2NC(=O)[C@H](NC(=O)[C@@H]4NC(=O)[C@H]4NC(=O)[C@H](NC(=O)[C@H](NC)c5ccc(O)c(c5)Oc5cc(O)c(Cl)c4c5)[C@H](O)c4ccc(c(Cl)c4)O3)c3ccc(O)c(c3)-c3c(O[C@H]4O[C@H](CO)[C@@H](O)[C@H](O)[C@@H]4O)cc(O)cc3[C@@H](C(=O)O)NC2=O)O[C@H](C(=O)O)[C@@H](O)[C@@H]1O [AAD 216A]', 'rumen inoculum', 'ETOH', 0);

Given item CC[C@@]1([C@H]2O[C@H]([C@H]3O[C@@](O)(CO)[C@H](C)C[C@@H]3C)C[C@H]2C)CC[C@H]([C@@]2(C)CC[C@]3(C[C@H](O)[C@@H](C)[C@@H]([C@H](C)[C@H](OC)[C@@H](C)C(=O)O)O3)O2)O1 [Monensin Sodium] , the value recorded as its ETOH is 0

----------
System: rumen inoculum
Test: Rumen in vitro model
Design: species or system steer
Details: 50 ppm
RECORDED_METRIC: VFA (% Control)
API: value field is a number in % Control; no unit string.

Given item "CN[C@H](CC(C)C)C(=O)N[C@H]1C(=O)N[C@@H](CC(N)=O)C(=O)N[C@H]2C(=O)N[C@H]3C(=O)N[C@H](C(=O)N[C@H](C(=O)O)c4cc(O)cc(O)c4-c4cc3ccc4O)[C@H](O)c3ccc(c(Cl)c3)Oc3cc2cc(c3O[C@@H]2O[C@H](CO)[C@@H](O)[C@H](O)[C@H]2O[C@H]2C[C@](C)(N)[C@H](O)[C@H](C)O2)Oc2ccc(cc2Cl)[C@H]1O" , the value recorded as its VFA is 107

----------
Catalogue of compounds with associated % PR
Tested on: rumen inoculum
Assay: Rumen in vitro model
Parameters: species or system steer
Conditions: 0.5 ppm
# answer = value followed by unit

As a guide, the following entries are already answered.
INSERT INTO results (compound, reported_measurement) VALUES
  ('CN[C@H]1C(=O)N[C@H]2C(=O)N[C@H](C(=O)N[C@H]3C(=O)N[C@H]4C(=O)N[C@H](C(=O)N[C@H](C(=O)O)c5cc(O)cc(O[C@H]6O[C@H](CO)[C@@H](O)[C@H](O)[C@@H]6O)c5-c5cc4ccc5O)[C@H](O)c4cc(Cl)c(c(Cl)c4)Oc4cc3cc(c4O[C@@H]3O[C@H](C(=O)O)[C@@H](O)[C@H](O)[C@H]3NC(=O)CCCCCCCCC(C)C)Oc3ccc(cc3Cl)[C@H]2O)c2cc(cc(O)c2Cl)Oc2cc1ccc2O', '120% OF CONTROL'),
  ('CCCCCCCCCC(=O)N[C@H]1[C@H](Oc2c3cc4cc2Oc2c(Cl)cc(cc2Cl)[C@@H](O)[C@@H]2NC(=O)[C@H](NC(=O)[C@@H]4NC(=O)[C@H]4NC(=O)[C@H](NC(=O)[C@H](NC)c5ccc(O)c(c5)Oc5cc(O)c(Cl)c4c5)[C@H](O)c4ccc(c(Cl)c4)O3)c3ccc(O)c(c3)-c3c(O[C@H]4O[C@H](CO)[C@@H](O)[C@H](O)[C@@H]4O)cc(O)cc3[C@@H](C(=O)O)NC2=O)O[C@H](C(=O)O)[C@@H](O)[C@@H]1O [AAD 216A]', '105% OF CONTROL');

Given item CN[C@H]1C(=O)N[C@H]2C(=O)N[C@H](C(=O)N[C@H]3C(=O)N[C@H]4C(=O)N[C@H](C(=O)N[C@H](C(=O)O)c5cc(O)cc(O[C@H]6O[C@H](CO)[C@@H](O)[C@H](O)[C@@H]6O)c5-c5cc4ccc5O)[C@H](O)c4cc(Cl)c(c(Cl)c4)Oc4cc3cc(c4O[C@@H]3O[C@H](C(=O)O)[C@@H](O)[C@H](O)[C@H]3NC(=O)CCCCCCCC(C)C)Oc3ccc(cc3Cl)[C@H]2O)c2cc(cc(O)c2Cl)Oc2cc1ccc2O [AAD 216B] , the value recorded as its % PR is 103% OF CONTROL

Given item CC[C@@]1([C@H]2O[C@H]([C@H]3O[C@@](O)(CO)[C@H](C)C[C@@H]3C)C[C@H]2C)CC[C@H]([C@@]2(C)CC[C@]3(C[C@H](O)[C@@H](C)[C@@H]([C@H](C)[C@H](OC)[C@@H](C)C(=O)O)O3)O2)O1 [Monensin Sodium] , the value recorded as its % PR is 119% OF CONTROL
